The reported measurements were obtained from ChEMBL document CHEMBL1201862.

# Test system: OVCAR-3
# assay.name: NCI tumour cell line growth inhibition, 48 h
Activity calls are given as the source filed them. No stated cut-off is given here; in the data, active = GI50 up to about 1.1 µM and inactive = higher.
Could you please pick one outcome from this set? active, inactive

Known results for compounds:
O=C1NC2(CCCCCC2)C2CCCCCCC12O (stereo not given): inactive
CCOC(=O)c1cc(=O)c2ccnc3c2n1CCS3: inactive
CC(=O)Nc1cccc(N2C(=O)/C(=C\c3cccc(Oc4ccccc4)c3)S(=O)(=O)C2c2ccccc2)c1 (stereo not given): inactive

Here is the next item to consider.
Hey, what did the test say about CN(c1ccccc1)S(=O)(=O)c1ccccc1[N+](=O)[O-] ? inactive

* * *

# Test system: LOX IMVI
# assay.name: NCI tumour cell line growth inhibition, 48 h
Active and inactive are the calls of the source. Rule as the data show it: active = GI50 up to about 1.1 µM and inactive = higher.
Could you please pick one outcome from this set? t for active, f for inactive

CC1=C[C@@H](C)C[C@]2(C)CC[C@H](O2)[C@]23CC[C@](C)(C[C@H](O2)[C@@H]2O[C@@](C)(CC2=O)[C@@H](O)[C@H]2CC[C@@]4(CCC[C@@H](O4)[C@H](C)C(=O)O[C@H]4C[C@H]([C@]5(O)OCC[C@H](C)[C@@H]5O)O[C@H]4C=C1)O2)O3: t
CN(C)C1(C(=O)O)CC1: f
NC(=O)c1ncn(C2OC(CO)C(O)C2O)c1NC(=S)NC(=O)c1ccccc1 (centres undefined): f
CN(c1ccccc1)S(=O)(=O)c1ccccc1[N+](=O)[O-]: f
C/C(=C/C(=O)N(C)c1ccccc1Cl)O[Si](C(C)C)(C(C)C)C(C)C: f
COc1c2c(cc3c1OCO3)C13C=CC(OC)CC1N(CC3)C2.[O-][Cl+3]([O-])([O-])O (centres undefined): f

Hey, what did the test say about COc1ccc(-c2cc(-c3ccccc3)c(C#N)c(=O)[nH]2)cc1 ? f

Hey, what did the test say about CCCCCCCCCCCC1CCCC(C)N1 (centres undefined) ? f

Hey, what did the test say about CN(C)CCCNC(=O)c1cccc2nc3ccccc3nc12 ? f
